The origin of these recorded values is the supplement of paper PMC12455559.

Experiment: PET hydrolysis, aromatic products released after 48 h (umol product/mg enzyme); higher = more PET depolymerization activity
Conditions: substrate: cryPow; 60 °C; pH 6.5
Can you tell me PET hydrolysis for the items I'm about to list?
Hey, just send me the number, nothing else.

Task: So what does the record say about PET hydrolysis for NPYERGPAPTTSSIEASRGSFATSTTTVSRLAVSGFGGGTIYYPTSTASGTFGAVSIAPGFTATQSSMAWLGPRLASQGFVVFTIDTITTSDQPDSRGRQLLSSLDYLTQQSSVRSRIDSSRLGVVGHSMGGGGTLEAARSRPSLQAAVPLTGWNLTKSWSTVRVPTLVVGAQADTVAPVASHSIPFYTSLPSSLDKAYLELRGASHFAPNSANTTIAKYTLSWLKRFIDDDTRYEQFLCPIPGTSTTISDYRGNCPHAG [ESM140] ?
Result: 8

Task: Quick one: PET hydrolysis for ASPYERGPNPTAASVSATTGPFAIASVSVARGNGFGGGVIYYPTATNQGTFGGIAISPGLNGTWAGIAWLGPRLASQGFVVFGIETNNLNDSPTSRGTQLLAALDYLTQRSTVRTRVDAGRLAVMGHSMGGGGALDAALRRPSLQAAIGNAPHLPSGTLSNDRVPTMIYAMQNDTLVPPSRLTTLYNSIPATTERGYILVTGAGHNYIGQPSTTLARTMIPWFKIFIDDDTRYSQFLCPMSNQSGISQYRNSCPLS [ESM160] ?
Result: 7.5

----------
Experiment: PET hydrolysis, aromatic products released after 48 h (umol product/mg enzyme); higher = more PET depolymerization activity
Settings: substrate: cryPow; 40 °C; pH 7.5
Exercise: for every item that follows, state its recorded PET hydrolysis.

Task: What value of PET hydrolysis has been recorded for this entry: ADNPYERGPDPTESSIEASRGPFAVSQTTVSSLAVTGFGGGTIYYPTDTSQGTFGAVAISPGYTADQSSIAWIGPRLASQGFVVFTIDTITRYDQPASRGDQLLAALDYLTQRSSVRGRIDSSRLGVAGHSMGGGGTLEAAEERPSLQAAVPLAPWNLQKNFSGVRVPTFIIGGESDTVAPVATHSEPFYTSLPSTLDKAYMELNNASHFFPNTPNTTMAKYMISWFKRFIDDDTRYDQFLCPNPSGLAIEEYRSTCPY [TEP089]
Result: < 3

Task: Item DEIGQAPTSSNITGNGSFSVATYNISSLVSGFGGGVAYYPTTSGRYPVIAVSPGFTARWSSISWIGPRLASWGFVVVGIETNSIYDQPGSRGSQLLAALNWAVNSAPSSVRDRVDGSRRGVAGHSMGGGGTLEALAADTTGLVKAGVPIAPWNTDTTWGGLNEAVQIVGGESDTIAPVSSHSIPFYSTLGGPKSYVELNGASHFFPQTSNSTLSRALVSWFKRYLNNDARFTPFTCGYSGLSISDFRSNNC [ESM144] has what recorded PET hydrolysis?
Result: 6

Task: PET hydrolysis lookup needed for VEIGPNPTSTLLNGNGPFSVSSSSVSSWVSGFGGGTIYYPTASGQYGVIAVCPGYTGTSSSISWFARRLATHGFVTIAMNTNSRFDFPDSRATQLAAALNYLLNSSSSTIRSRIRTADRGVAGHSMGGGGTLRASERDSNLKVGIPLTPWHTDKTWGSLSVPQMIFGADGDTVAPASSHARTFYNSIPSSTKKAYALLNNASHFTPNSTDERIGRYGVAFAKRFVDGDTRYEPFLCGAEHSTYATSWKFDTYLSTCPYGGGSEPEPDYPWWYWWR [ESM162] , thanks.
Result: < 3

Task: I'd like to know its PET hydrolysis. The sequence in question is AENPYERGPAPTTASIEALRGPFATAETTVSSLSVRGFGGGTIHYPTSTAEGTFGAVAVAPGYTASQSSLSWLGPRLASQGFVVFVIDTNSRYDQPASRGDQLLAALDYLTTSSSVRGRIDASRLGVMGHSMGGGGALEATKDRPSLQASIPLTPWNTTKTWSTVRTPTLVVGAEDDSVAPVRTHAEPFYEGLPSTLDKAYLELAGASHFAPNSSNTTIAKYSIAWLKRFVDDDTRYEQFLCPAPRGTAISEYRDTCPHP [TEP110]
Result: < 3

Task: Which PET hydrolysis value belongs to GESPGAAVVAFAGHAKGPAPTEQSVRAQQGPFTTDKLVVPAQAGRGFNKGTIYYPDDTSQGTFGAVAVIPGFLEGESAISWLGPTLASHGFITLTLAPNATTDYPEPRSNQLLAAVDWLANQSPVKDRVDPNRLAVAGHSMGGGGTLIAASKNPALKAAVPLTPWNPHSNFSDVTVPTLIIGADRDFIAPTFMHASPMYNSLKAKQDQAYLKLKNADHFATNRYNATATAYTVSWLKRYVDEDTRYSQFLCPVKSGFQLTCPI [DP011] ?
Result: < 3

Task: Could you tell me which PET hydrolysis is on file for AANPYQRGPAPTAASVAAVTGPFATASVSVPRGNGFGGGVIYYPTDTSQGTFGGLAISPGLNGTWPGIAWLGSRLASQGFIVFGIETNNLNDSPTSRGTQLLAALDYLAQRSSVRSRLDPGRLAVAGHSMGGGGALDAALRRPSLKAAIGNAPYLPSNTLAGNRVPTLIYAMQNDTLVPPSRLTSLYNTIPATTERAYLEITGAGHNYIGQPSTTLARTMIPWLKIFIDNDTRFSQFLCPLADQSGIRQYRSSCPLVPATTRALTAAAG [DP043] ?
Result: 96

Task: Endpoint output: PET hydrolysis of ADNPHQRGPNPTQASITANRGTFATAETSVGGGNGFGAAKIYYPTDTSQGTFGAIAVVPGYTATWAAEGAWMGHWLASFGFVVIGIDTLNRNDFDVARGTQLLAALDYLTQRSSVRTRVDPNRLAVMGHSMGGGGTISAALRWPTLKAAIGLAPYSPSQTTSGLQVPTMLLAGQNDGTSTPASIISLYNNIPASTEKSYLELAGAGHGFPTSNNSVMTRKVIPWMKIFIDQDARYTQFLCPLQDWTGIRSYRSSCPLLPGATFSLAGSASGKCVDVPGRVQTNGTGLIIWTCNGAVNQQWTRTAAGELRIYDNAKCMDANASGPGTRVTINSCNGGNSQKWTVNANGTVTNAASGRCIDTGGTADNAPVVVNTCTGGTSQT [ESM163] . Value?
Result: < 3

Task: What value of PET hydrolysis has been recorded for this entry: QAPDRTALARTGPYQVAYYTQLPPAAEFSAATLFFPANKAQAFGGVVIAPGYTEKQVNVQWWGYHLASHGYAVLVLDTNDPEEYPDRRADALMAGVAVLRGENTRMGSTLRGKILEGRIALMGHSMGGGGTLLAANGHSDQLKTIIPFTPWLPGADFSAVSVPTLVLAGEIDRIAAVKDHAWPHYESLTGAVPRMYLEVKGGNHYIANSMTDREDRNPNIDVHDLVGSMVVAWLKTFLDDDESYRELVFGDLPEADRVRISRLEFVE [TEP006]
Result: < 3

Task: // PET hydrolysis lookup, key: MHPTPDRAKVLPVNVSRGPAEPPAARSARPGGRSAPDGLRPGRRRPVPSSEQGATDVQSHPPTPANRRTRTVATLALALTLVGGAGAIAPTAHAAAGHERGPNPTSAALEASRGPFSVSSTTVSSLSASGFGGGTIYYPNDTGQGTFGGVIVAPGFTASRSTMAWLAERLASHGFVVFNIDTITRSDQPDSRGRQLLAAADHLAEESSPAVRSRLDAGRIGVMGHSMGGGGTLAAAESRPSLQAAVPLTPWHTDKSWGSVQVPTMIIGAENDSVAPVSSHAEPFYNSLSSAQEKAYLELNGASHFAPNSSNSTLAKYSIAWMKRFVDDDLRYDQFLCPAPGRSTRIEEYRSSCPH [TEP081]
Result: < 3

Task: Item AGFERGPDPSTSTLDAARGPFAVAEERVYSWRASGFGGGDIYYPTTTSEGTFGVVAVAPGYTAGRSSMAWLASRIASHGFVVINIDTLTRSDQPASRGRQLLAALDHVTSSSGVRDRVDASRQAVVGHSMGGGGALEAASSRPALQAAVPLTPWNLTKRWSSLQVPTFIVGAENDSVASVRTHAEPFYESLPAALPKAYLELNNASHFAPNTTNSTIGRYTVAWLKRYVDDDLRYSQFLCPPPPPSSAIEEFRATC [DP087] has what recorded PET hydrolysis?
Result: < 3

----------
Assay: PET hydrolysis, aromatic products released after 48 h (umol product/mg enzyme); higher = more PET depolymerization activity
Settings: substrate: cryPow; 40 °C; pH 4.5
Measured endpoint: PET hydrolysis
Answer field: number only, no words.

Task: # lookup: PET hydrolysis of DEIGQAPTASNITGNGSFATTSESISSLVSGFGGGRVYYPTATGRYPVIAISPGFTATWSSLAWIGPRLSSWGFVVVGIETNSIYDQPGSRGNQLLAALNWAVNSSSTAVRSRVDGSRRGVAGHSMGGGGTLEALAADTSGLVKAGVPLAPWNTDKIWSNVSEPVLIVGGQADTIAPVATHSVPFYNTLAGPKTYVELTGASHFFPQTTNATTSRALVSWFKRWLNQDSRFTPYTCGFGGLAVSDFRSNAC [ESM147]
Result: 11
